Target: UniProt:P42226
Sequence (P42226 whole entry, species assumed): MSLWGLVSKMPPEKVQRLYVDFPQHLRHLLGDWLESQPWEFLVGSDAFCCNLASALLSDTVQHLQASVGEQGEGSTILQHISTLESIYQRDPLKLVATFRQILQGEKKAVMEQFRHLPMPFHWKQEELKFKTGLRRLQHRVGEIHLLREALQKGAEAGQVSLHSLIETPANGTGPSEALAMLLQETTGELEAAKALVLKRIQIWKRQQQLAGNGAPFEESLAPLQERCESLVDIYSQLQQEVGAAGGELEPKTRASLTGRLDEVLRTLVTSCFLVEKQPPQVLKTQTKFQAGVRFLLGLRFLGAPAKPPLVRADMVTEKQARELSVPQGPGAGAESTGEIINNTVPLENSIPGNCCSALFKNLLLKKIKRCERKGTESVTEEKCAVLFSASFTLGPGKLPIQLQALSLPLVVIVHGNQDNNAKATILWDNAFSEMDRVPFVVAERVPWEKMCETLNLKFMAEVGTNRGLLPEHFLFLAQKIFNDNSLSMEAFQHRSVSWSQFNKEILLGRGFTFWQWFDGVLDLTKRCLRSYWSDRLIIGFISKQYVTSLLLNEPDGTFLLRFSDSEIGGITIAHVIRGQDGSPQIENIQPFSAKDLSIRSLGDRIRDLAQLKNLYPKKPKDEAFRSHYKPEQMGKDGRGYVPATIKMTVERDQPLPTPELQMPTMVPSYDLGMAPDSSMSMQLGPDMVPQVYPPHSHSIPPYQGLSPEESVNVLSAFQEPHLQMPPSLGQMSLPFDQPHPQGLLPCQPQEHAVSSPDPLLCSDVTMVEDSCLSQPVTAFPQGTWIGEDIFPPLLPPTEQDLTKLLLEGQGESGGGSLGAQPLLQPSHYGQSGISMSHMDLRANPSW
Experiment: Fluorescence polarization competition with FAM-labelled IL-4Rα Tyr631 phosphopeptide for binding to STAT6
Settings: other phosphate-containing STAT6 inhibitors; competition with FAM-Ala-pTyr-Lys-Pro-Phe-Gln-Asp-Leu-Ile-NH2
pIC50: −log10 of the molar value.

compound	pIC50
C/C(=C\C(=O)N[C@H](C(=O)N1CCC[C@H]1C(=O)N(c1ccccc1)c1ccccc1)C(C)(C)C)c1ccc(OP(=O)(O)O)cc1 [PM-300H-B]	7.05
CC(C)(C)[C@H](NC(=O)/C=C/c1ccc(OP(=O)(O)O)cc1)C(=O)N1CCC[C@H]1C(=O)N(c1ccccc1)c1ccc(I)cc1 [PM-287H]	7.14
CCN(CC)C(=O)[C@@H]1CCCN1C(=O)[C@@H](NC(=O)/C=C(\C)c1ccc(OP(=O)(O)O)cc1)C(C)(C)C [PM-302H-B]	6.42
C/C(=C\C(=O)N[C@H](C(=O)N[C@@H](C)C(=O)N(C)c1ccccc1)C(C)(C)C)c1ccc(OP(=O)(O)O)cc1 [PM-26I]	6.92
C/C(=C\C(=O)N[C@H](C(=O)N1CCC[C@H]1C(=O)N(C)C1CCCCC1)C(C)(C)C)c1ccc(OP(=O)(O)O)cc1 [PM-70I]	6.64
CC(C)(C)[C@H](NC(=O)/C=C/c1ccc(OP(=O)(O)O)cc1)C(=O)N1CCC[C@H]1C(=O)N(c1ccccc1)c1ccccc1 [PM-300H-A]	6.92
